# Tested on: CAKI-1 renal
# protocol_description: NCI-60 one-dose screen, 48 h
# condition_label: 10 µM unless noted
This is part of a sample that, as a whole, favours compounds with a hit. Of some 83,000 tested, about 20% had one in any assay. The source made the active and inactive calls. How the source made its calls: active means growth percent below 10; inactive means the rest.
// one of y for active, n for inactive, no free text

CCOc1cc(F)c([N+](=O)[O-])cc1[N+](=O)[O-]: n
NC(CS/C(Cl)=C/Cl)C(=O)O (stereo not given): n
CC(C)N=C(N)/N=C(\N)Nc1ccc2ccc3ccccc3c2c1: y
O=C(OC12CC3CC(CC(C3)C1)C2)c1ccc(NCc2cc(O)ccc2O)cc1: y
COc1cccc2c1C(=O)c1c(O)c3c(c(O)c1C2=O)C[C@@](O)(C(=O)CO)C[C@@H]3OC1CC(OC(C)=O)C(OC(C)=O)C(C)O1 (stereo not given in full): y

INPUT: How was Oc1cc(Cl)ccc1Cc1ccc(Cl)cc1O classified in this test?
OUTPUT: n

INPUT: Dear colleague, could you share the recorded outcome for CC(O)C(O)C(O)C(O)C(O)C(=O)NNc1ccccc1 (stereo not given) when you have a moment?
OUTPUT: n

====

# Test system: MOLT-4 leukemia
# protocol_description: NCI-60 one-dose screen, 48 h (100 = growth as untreated, 0 = no growth, -100 = all killed)
# condition_label: 10 µM unless noted
# Protocol: Growth inhibition of the MOLT-4 human tumor cell line is measured as a screen for anti-cancer activity. Cells are grown in 96 well plates and exposed to the test compound for 48 hours. Compounds are tested at a single concentration, which is 10^-5 M for most compounds. The reported endpoint is percent growth (GI% or GIPRCNT), where numbers from 0 - 100% represent growth inhibition, and numbers from -100% - 0 represent cell death. For example, a value of 40 represents 60% growth inhibition. […]
This is part of a sample that, as a whole, favours compounds with a hit. Of some 83,000 tested, about 20% had one in any assay.
measure_name: growth (%)
Numbers only, in %.

# annotated cases, reported growth shown
NC1=C(Br)C(=O)c2ncccc2C1=O: -5.62
CC1(C)CCCC2=C1C(=O)N(SC(Cl)(Cl)Cl)C2=O: 21
O=C1C=CC(=O)N1c1ccccc1: 42.2
COC(=O)C(=[N+]=[N-])C(=O)c1ccc([N+](=O)[O-])o1: 93.6
CC(C)c1ccc(C(=O)OC2CCCC2)cc1: 110

Hi there! I need growth for each item below, if you can.
1. O=C(NOC(=O)c1ccccc1)c1ccccc1
2. CCOC(=O)/C(=C\c1ccc2ccccc2c1)P(=O)(OCC)OCC

OUTPUT:
1. 93
2. -25.1

====

# Test system: SK-MEL-2 melanoma
# protocol_description: NCI-60 one-dose screen, 48 h (100 = growth as untreated, 0 = no growth, -100 = all killed)
# condition_label: 10 µM unless noted
About 83,000 compounds went through this panel and 20% of them were active in at least one assay; those are over-represented in the sample as a whole.
For each entry below, report its growth value.
Answers are plain numbers, in %.

Worked examples, 3 compounds total:
OC(c1cc(-c2ccc(Cl)cc2)nc2c(Cl)cccc12)C1CCCCN1 (stereo unspecified): -91
CCCOC(=O)c1nc(N(CC2CCCCC2)C(=O)NC)sc1/N=C/c1ccccc1: -0.0368
Clc1ccc(-n2ncc3c(NCCCN4CCOCC4)ncnc32)cc1: 108

Provide reported growth for each item, in the same order as listed.
1. CCCCCC[C@@H](O)C/C=C\CCCCCCCC(=O)OCCOC
2. CCCCCCCCCCCCCCCCCC1=NCCCN1CCO
3. O=C1C=CC(=O)N1c1ccccc1
4. CN(Cc1ccccc1)c1ccc(SC#N)cc1
5. NC(=S)Nc1ccc2c(c1)Cc1ccccc1-2
6. O=C(Nc1cccc(C(F)(F)F)c1)Oc1ccc(Cl)c2cccnc12
7. O=C1C=CC(=O)N1c1cc(Cl)c(Cl)cc1Cl
8. CCCCOS(=O)(=O)c1ccccc1

OUTPUT:
97.6
111
103
98.4
89.6
9.44
87.2
99.9

====

# Test system: T-47D breast
# protocol_description: NCI-60 one-dose screen, 48 h (100 = growth as untreated, 0 = no growth, -100 = all killed)
# condition_label: 10 µM unless noted
# Description: Growth inhibition of the T-47D human tumor cell line is measured as a screen for anti-cancer activity. Cells are grown in 96 well plates and exposed to the test compound for 48 hours. Compounds are tested at a single concentration, which is 10^-5 M for most compounds. The reported endpoint is percent growth (GI% or GIPRCNT), where numbers from 0 - 100% represent growth inhibition, and numbers from -100% - 0 represent cell death. For example, a value of 40 represents 60% growth inhibition. […]
This is part of a sample that, as a whole, favours compounds with a hit. Of some 83,000 tested, about 20% had one in any assay.
Please provide measured growth for the entries that follow.
Numbers only, in %.

Oc1c(Cl)cc(Cl)cc1C=NCC1CCC(CN=Cc2cc(Cl)cc(Cl)c2O)CC1 (stereo not drawn): 71.4

Quick batch: growth for everything below.
1. COc1cc(/C=C/c2ccnc3ccccc23)cc(OC)c1OC
2. CCC(C)C(N)C(=O)NC(CC(N)=O)C(=O)NC(CC(C)C)C(=O)NC(CCCCN)C(=O)NC(C)C(=O)NC(CC(C)C)C(=O)NC(C)C(=O)NC(C)C(=O)NC(CC(C)C)C(=O)NC(C)C(=O)NC(CCCCN)C(=O)NC(CCCCN)C(=O)NC(C(=O)NC(CC(C)C)C(N)=O)C(C)CC (stereo not drawn)

OUTPUT:
[41.1, 93.9]

====

# Test system: CAKI-1 renal
# protocol_description: NCI-60 one-dose screen, 48 h (100 = growth as untreated, 0 = no growth, -100 = all killed)
# condition_label: 10 µM unless noted
About 83,000 compounds went through this panel and 20% of them were active in at least one assay; those are over-represented in the sample as a whole.
measure_name: growth (%)
One number for each entry, in %.

Known results for compounds:
CC(=O)C1Cc2ccccc2C1=O (centres undefined): 82.6
O=C(c1ccccc1)c1cc2ccccc2oc1=O: 98.7
O=C1C=CC(O)=CC1=P(c1ccccc1)(c1ccccc1)c1ccccc1: 86.2
O=C1/C(=C\c2ccc([N+](=O)[O-])cc2)CS(=O)(=O)C/C1=C/c1ccc([N+](=O)[O-])cc1: -92.3
CCN(CC)CC(O)CNc1ccc(NCC2CO2)c2c1C(=O)c1ccccc1C2=O (centres undefined): -32
CC(C)=CCCC(C)C1=C(O)C(=O)C(C)=CC1=O (centres undefined): 88.4

Kindly give each listed record's growth.
1. O=C1Nc2ccc(Br)cc2C1=O
2. Cc1cc(C)c(C#N)c(Sc2nc(C)c([N+](=O)[O-])c(C)c2C#N)n1
3. CCN(CC)CCNc1ccc([N+](=O)[O-])c2sc3ccccc3c(=O)c12
4. CCOc1ccc2c(c1)/C(=C\C=C\C1CC(C)C3CC(OCC)CCC3N1CC)CC(C)N2CC (centres undefined)
5. Cc1ccc(NC2=CC(=O)C(=O)c3ccccc32)cc1
6. Cc1cc(Br)c2nsnc2c1[N+](=O)[O-]

OUTPUT:
1. 100
2. 0.956
3. -0.017
4. 17.9
5. 35.5
6. -34.5

====

# Test system: NCI-H322M lung
# protocol_description: NCI-60 one-dose screen, 48 h (100 = growth as untreated, 0 = no growth, -100 = all killed)
# condition_label: 10 µM unless noted
About 83,000 compounds went through this panel and 20% of them were active in at least one assay; those are over-represented in the sample as a whole.
measure_name: growth (%)
Answers are plain numbers, in %.

Some molecules with known growth results, for comparison:
Oc1ccc(Cl)cc1Cc1cc(Cl)ccc1O: 79.6
Cn1c(-c2ccccc2)c(/C=C/C2=[N+](C)c3ccccc3C2(C)C)c2ccccc21: 50.3

Please state growth for every molecule in the list that follows.
1. CN=C(N)N/N=C(\c1ccccc1)c1ccc(Br)cc1
2. COc1ccc2c(c1OC)OCC(CN(C)C)C2=O (stereo not given)
3. CCc1cccc(CC)c1N1C(=O)C=CC1=O

OUTPUT:
1: 0.506; 2: 111; 3: 95.3

Would you be so kind as to report growth for each listed record?
1. COc1ccc(C(OCC2OC(n3ccc(NC(=O)c4ccccc4)nc3=O)C(O)C2O)(c2ccccc2)c2ccccc2)cc1 (stereo not given)
2. CCOc1ccc2c(c1)/C(=C\C=C\C1CC(C)C3CC(OCC)CCC3N1CC)CC(C)N2CC (stereo not given)
3. CC1=CC(=NC(=O)CBr)C=C/C1=N\S(=O)(=O)c1ccccc1
4. O=C1C=CC(=O)c2c(O)c(CO)c(CO)c(O)c21
5. O=C1C=CC(=O)N1c1ccc(O)cc1
6. O=C(CCl)N(c1ccccc1)c1ccccc1

OUTPUT:
[109, 4.18, 107, 119, 105, 95]

Record growth for all entries; do not skip any.
1. CCOc1ccc(C(C[N+](=O)[O-])Sc2ccccc2N)cc1 (stereo not given)
2. Oc1c(Cl)cc(Cl)cc1C=NCC1CCC(CN=Cc2cc(Cl)cc(Cl)c2O)CC1 (stereo not given)
3. CCOC(=O)c1cc(CC)sc1NC(=O)CC(C)=O
4. Cc1ccc(NC2=CC(=O)C(=O)c3ccccc32)cc1
5. CSc1nc(C)c(C(=O)CCN2CCN(c3ccccn3)CC2)s1

OUTPUT:
88.2
75.5
95.3
-12.5
107

Field: growth. Fill in for each record below.
1. CCN(CC)CC(O)CNc1ccc(NCC2CO2)c2c1C(=O)c1ccccc1C2=O (stereo not given)
2. OC(c1cc(-c2ccc(Cl)cc2)nc2c(Cl)cccc12)C1CCCCN1 (stereo not given)
3. Oc1cc(Cl)ccc1Cc1ccc(Cl)cc1O
4. NNc1ccc(Cl)cc1Cl
5. Cc1cc2cccnc2c2ncccc12
6. Oc1ccc(Nc2ccc3ccccc3c2)cc1

OUTPUT:
[-16.7, -54.8, 97, 77.3, 40.4, 33.9]
